Entries and their pKd values follow.
# Assayed Target: T1, EsCas13d, nuclease-dead (Eubacterium siraeum, UniProt B0MS50, R295A;H300A;R849A;H854A)
# T1 sequence: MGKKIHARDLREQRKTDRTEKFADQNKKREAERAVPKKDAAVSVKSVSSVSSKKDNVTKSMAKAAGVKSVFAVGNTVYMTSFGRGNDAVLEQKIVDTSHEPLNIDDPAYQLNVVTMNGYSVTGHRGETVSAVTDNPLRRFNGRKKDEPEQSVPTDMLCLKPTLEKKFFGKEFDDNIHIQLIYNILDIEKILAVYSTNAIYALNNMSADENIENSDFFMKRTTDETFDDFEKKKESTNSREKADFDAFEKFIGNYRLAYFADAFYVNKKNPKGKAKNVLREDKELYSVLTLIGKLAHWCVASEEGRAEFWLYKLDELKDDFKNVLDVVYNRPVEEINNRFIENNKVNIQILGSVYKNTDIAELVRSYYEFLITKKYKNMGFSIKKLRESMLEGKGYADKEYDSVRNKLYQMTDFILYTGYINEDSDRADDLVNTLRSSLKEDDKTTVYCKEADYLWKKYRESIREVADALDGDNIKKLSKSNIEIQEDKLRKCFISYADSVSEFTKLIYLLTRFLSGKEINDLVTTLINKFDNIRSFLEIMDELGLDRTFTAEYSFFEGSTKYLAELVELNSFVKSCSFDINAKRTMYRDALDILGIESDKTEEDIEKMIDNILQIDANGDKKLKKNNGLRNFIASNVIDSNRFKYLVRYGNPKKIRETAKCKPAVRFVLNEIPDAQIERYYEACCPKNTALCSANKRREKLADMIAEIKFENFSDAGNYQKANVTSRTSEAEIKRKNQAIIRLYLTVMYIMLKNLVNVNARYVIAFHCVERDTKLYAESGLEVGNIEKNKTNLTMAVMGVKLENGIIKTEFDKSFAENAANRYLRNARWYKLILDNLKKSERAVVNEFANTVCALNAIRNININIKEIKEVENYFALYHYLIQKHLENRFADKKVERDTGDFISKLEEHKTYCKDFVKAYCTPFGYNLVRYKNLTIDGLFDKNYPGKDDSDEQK
# Test Summary: crRNA (strand 1, pre-loaded); Mg2+; 40 mM Tris-HCl pH 7.5, 150 mM NaCl, 6 mM MgCl2, 1 mM DTT, 0.1% Tween-20, 0.2 mg/ml BSA; 25 C; 10 min per concentration, then washed
# Measurement Setup: tags: His6-TwinStrep-SUMO cleaved; N-terminal SNAP kept (SNAP-Surface 488); label: 3' end held by stalled T7 RNA polymerase
# pKd: negative log10 of molar concentration; output just the value

Here are 5 binders together with their reported answers.
# Binder, pKd
records = [
    ("target 1 insC 3' of 22,insC 3' of 22 (mixed) RNA 1: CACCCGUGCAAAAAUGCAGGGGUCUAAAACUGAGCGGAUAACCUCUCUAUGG RNA 2: GGGAAUGGAUCCACAUCUACGAAUUCGUACCCCAUAGAGAGGUUAUCCGCUCACCGAGAUCGGAAGAGCACACGU", 7.76),
    ("target 1 insA 3' of 22,insU 3' of 4 (mixed) RNA 1: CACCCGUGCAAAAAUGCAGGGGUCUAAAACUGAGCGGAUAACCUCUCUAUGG RNA 2: GGGAAUGGAUCCACAUCUACGAAUUCGUACACAUAGAGAGGUUAUCCGCUUCACCGAGAUCGGAAGAGCACACGU", 7.95),
    ("target 2 MT 5'PFS GAG 3'PFS AUA (mixed) RNA 1: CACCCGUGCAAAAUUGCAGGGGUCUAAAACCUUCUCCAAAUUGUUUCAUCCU RNA 2: GGGAAUGGAUCCACAUCUACGAAUUCGAGAGGAUGAAACAAUUUGGAGAAGAUAAGAUCGGAAGAGCACACGU", 8.32),
    ("target 1 C4A,A16G (mixed) RNA 1: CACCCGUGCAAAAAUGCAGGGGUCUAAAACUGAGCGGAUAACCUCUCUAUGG RNA 2: GGGAAUGGAUCCACAUCUACGAAUUCGUACCAUAGGGAGGUUAUCCGAUCACCGAGAUCGGAAGAGCACACGU", 7.76),
    ("target 2 MT 5'PFS ACA 3'PFS UGA (mixed) RNA 1: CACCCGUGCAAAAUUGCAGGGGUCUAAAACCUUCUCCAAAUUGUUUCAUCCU RNA 2: GGGAAUGGAUCCACAUCUACGAAUUCACAAGGAUGAAACAAUUUGGAGAAGUGAAGAUCGGAAGAGCACACGU", 8.15),
]

Here's the next entry for you.
Challenge: Please report pKd for the following binder: target 1 MT 5'PFS GCU 3'PFS UGA (mixed) RNA 1: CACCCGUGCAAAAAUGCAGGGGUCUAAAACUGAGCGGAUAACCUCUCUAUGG RNA 2: GGGAAUGGAUCCACAUCUACGAAUUCGCUCCAUAGAGAGGUUAUCCGCUCAUGAAGAUCGGAAGAGCACACGU
Response given: 7.00

FYI, the data here is from paper PMC10786891.
